biological target: human LAIR-1-CD3ζ chimeric receptor on NFAT-GFP reporter cells (human, UniProt P20963 31-164, limits assumed); assay: cell-based or functional assay
Sequence (P20963 other isoform, or with tags, fused parts or gaps mutant limits assumed): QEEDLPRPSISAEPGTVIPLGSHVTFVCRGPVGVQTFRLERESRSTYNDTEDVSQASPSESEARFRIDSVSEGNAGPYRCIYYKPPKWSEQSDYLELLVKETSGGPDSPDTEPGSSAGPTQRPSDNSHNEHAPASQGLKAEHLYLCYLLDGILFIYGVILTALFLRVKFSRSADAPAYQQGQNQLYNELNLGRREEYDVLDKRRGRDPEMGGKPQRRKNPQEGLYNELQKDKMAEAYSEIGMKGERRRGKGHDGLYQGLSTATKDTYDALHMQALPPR
result-type: IC50 (read off the curve): % GFP+ human LAIR-1 reporter cells on coated collagen 1

binder	endpoint-value
anti-LAIR-1 antibody ch62G10 (antibody, V domains shown, The prefix 'ch' is not defined) VH: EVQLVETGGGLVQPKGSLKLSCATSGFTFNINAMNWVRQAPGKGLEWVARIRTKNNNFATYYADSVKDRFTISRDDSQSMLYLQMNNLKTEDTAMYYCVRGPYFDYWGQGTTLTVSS VL: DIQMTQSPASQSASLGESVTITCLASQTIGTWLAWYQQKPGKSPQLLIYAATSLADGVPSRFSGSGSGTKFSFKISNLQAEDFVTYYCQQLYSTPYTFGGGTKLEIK	~0.04 nM
anti-LAIR-1 antibody ch57D12 (antibody, V domains shown, The prefix 'ch' is not defined) VH: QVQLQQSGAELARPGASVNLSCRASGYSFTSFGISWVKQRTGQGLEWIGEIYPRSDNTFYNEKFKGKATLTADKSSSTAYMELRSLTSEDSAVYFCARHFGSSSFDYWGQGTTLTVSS VL: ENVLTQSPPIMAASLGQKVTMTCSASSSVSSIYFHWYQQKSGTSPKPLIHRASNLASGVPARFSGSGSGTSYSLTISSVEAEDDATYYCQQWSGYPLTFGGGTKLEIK	~0.3 nM
humanized anti-LAIR-1 antibody Hz62G10.v1 (antibody, human IgG1, kappa, N297G, V domains shown, Humanized 62G10) VH: EVQLVESGGGLVKPGGSLRLSCAASGFTFNINAMNWVRQAPGKGLEWVARIRTKNNNFATYYADSVKDRFTISRDDSKNTLYLQMNSLKTEDTAVYYCVRGPYFDYWGQGTLVTVSS VL: DIQMTQSPSSLSASVGDRVTITCLASQTIGTWLAWYQQKPGKAPKLLIYAATSLADGVPSRFSGSGSGTDFTLTISSLQPEDFATYYCQQLYSTPYTFGGGTKVEIKR	~0.04 nM
anti-LAIR-1 antibody ch47H1 (antibody, V domains shown, The prefix 'ch' is not defined; detected with anti-human Fc secondary antibody) VH: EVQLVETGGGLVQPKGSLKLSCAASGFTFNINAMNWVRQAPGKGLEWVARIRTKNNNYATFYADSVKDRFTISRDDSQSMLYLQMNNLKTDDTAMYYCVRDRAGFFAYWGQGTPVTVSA VL: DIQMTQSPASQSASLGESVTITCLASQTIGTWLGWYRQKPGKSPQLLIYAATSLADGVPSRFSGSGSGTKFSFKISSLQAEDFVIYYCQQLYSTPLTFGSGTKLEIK	~0.02 nM
